test system: Magnusiomyces capitatus; test: Antimicrobial activity against Blastoschizomyces capitatus by microdilution method; format: functional
Numbered stars: 1 amine (or outer) side, 2 acyl side, 3 side chain; on linkers, the order of the positions; unused ones are H or OH. Bridge positions count the residues as written; N and C are the ends. Square brackets hold non-standard residues; d marks the D form. Peptide text beside a SMILES is read from it. * marks the point of attachment. hTyr(3S-OH,4S-OH,3'-OSO3H) = N[C@H](C(=O)O)[C@H](O)[C@@H](O)c1ccc(O)c(OS(=O)(=O)O)c1; Orn(4R-OH,5R-OH) = O=C([C@H](C[C@@H](O)[C@@H](O)N[*:3])N[*:1])[*:2]; Pro(3S-OH,4S-Me) = C[C@H]1CN[C@H](C(=O)O)[C@H]1O; X1 = CCCCCOc1ccc(-c2cc(-c3ccc(C(=O)*)cc3)no2)cc1; Gln(3R-OH) = NC(=O)C[C@@H](O)[C@H](N)C(=O)O; Hyp = O=C(O)[C@@H]1C[C@@H](O)CN1
Quantity: MIC (µg/mL)
Only the number, expressed in µg/mL, is required.

Solved cases below.
Would you kindly share the measured MIC for C[C@@H]1[C@H](O)[C@@H](C)/C=C/C=C/C=C/C=C/C=C/C=C/C=C/[C@H](O[C@@H]2O[C@H](C)[C@@H](O)[C@H](N)[C@@H]2O)C[C@@H]2O[C@](O)(C[C@@H](O)C[C@@H](O)[C@H](O)CC[C@@H](O)C[C@@H](O)CC(=O)O[C@H]1C)C[C@H](O)[C@H]2C(=O)O [AMPHOTERICIN B] ?
0.5

Quick one: MIC of CCCCCOc1ccc(-c2cc(-c3ccc(C(=O)N[C@H]4C[C@@H](O)[C@@H](O)NC(=O)[C@@H]5[C@@H](O)[C@@H](C)CN5C(=O)[C@H]([C@H](O)CC(N)=O)NC(=O)[C@H]([C@H](O)[C@@H](O)c5ccc(O)c(OS(=O)(=O)O)c5)NC(=O)[C@@H]5C[C@@H](O)CN5C(=O)[C@H]([C@@H](C)O)NC4=O)cc3)no2)cc1 [MICAFUNGIN] (X1-[Orn(4R-OH,5R-OH)]T[Hyp][hTyr(3S-OH,4S-OH,3'-OSO3H)][Gln(3R-OH)][Pro(3S-OH,4S-Me)]; lactam 1-C) ?
0.5

New cases:
Name the reported MIC value associated with the compound OC(Cn1cncn1)(Cn1cncn1)c1ccc(F)cc1F [FLUCONAZOLE]
4

Consider the compound shown here: CC[C@@H]([C@H](C)O)n1ncn(-c2ccc(N3CCN(c4ccc(OC[C@@H]5CO[C@@](Cn6cncn6)(c6ccc(F)cc6F)C5)cc4)CC3)cc2)c1=O [POSACONAZOLE] What is its recorded MIC?
0.12

Using the record for CCC(C)n1ncn(-c2ccc(N3CCN(c4ccc(OCC5COC(Cn6cncn6)(c6ccc(Cl)cc6Cl)O5)cc4)CC3)cc2)c1=O (stereo unspecified) [ITRACONAZOLE] , report its MIC.
0.06
